Tested on: Acinetobacter baumannii
Assay: Antibacterial activity against Acinetobacter baumannii DSM 30007 assessed as growth inhibition after 18 hrs
Assay type: functional
Settings: DSM 30007, 18 h
Peptide text beside a SMILES is read from it. * marks the point of attachment. Octanoyl = CCCCCCCC(=O)*; Butyryl = CCCC(=O)*
result type: MIC

# count of solved cases: 2
| molecule | result type | test value |
| --- | --- | --- |
| CCCCCCCC(=O)NCCCC[C@H](NC(=O)[C@H](Cc1c[nH]c2ccccc12)NC(=O)[C@H](CCCNC(=N)N)NC(=O)[C@H](Cc1c[nH]c2ccccc12)NC(=O)[C@H](CCCNC(=N)N)NC(=O)[C@H](Cc1c[nH]c2ccccc12)NC(=O)[C@@H](N)CCCNC(=N)N)C(N)=O (H-RWRWRWK(Octanoyl)-NH2) | MIC | 5 µM |
| CCCC(=O)NCCCC[C@H](N)C(=O)N[C@@H](CCCNC(=N)N)C(=O)N[C@@H](Cc1c[nH]c2ccccc12)C(=O)N[C@@H](CCCNC(=N)N)C(=O)N[C@@H](Cc1c[nH]c2ccccc12)C(=O)N[C@@H](CCCNC(=N)N)C(=O)N[C@@H](Cc1c[nH]c2ccccc12)C(N)=O (H-K(Butyryl)RWRWRW-NH2) | MIC | > 100 µM |

# evaluate next
Dear colleague, I am looking for the recorded MIC of the following molecule: N=C(N)NCCC[C@H](NC(=O)[C@H](Cc1c[nH]c2ccccc12)NC(=O)[C@H](CCCNC(=N)N)NC(=O)[C@H](Cc1c[nH]c2ccccc12)NC(=O)[C@H](CCCNC(=N)N)NC(=O)[C@@H](N)CCCCN)C(=O)N[C@@H](Cc1c[nH]c2ccccc12)C(N)=O (H-KRWRWRW-NH2) > 100 µM

====

Assay: Hemolytic activity against human RBC assessed as hemoglobin leakage at 250 ug/ml
Format: ADME, cell-based, Erythrocyte
Settings: human red blood cells, read-out: Activity
Peptide text beside a SMILES is read from it. * marks the point of attachment. Lauroyl = CCCCCCCCCCCC(=O)*; Decanoyl = CCCCCCCCCC(=O)*
Listed compounds paired with reported hemolysis at 250 ug/ml

See these solved cases before continuing.
| compound | hemolysis at 250 ug/ml |
| --- | --- |
| CCCCCCCCCC(=O)NCCCC[C@H](N)C(=O)N[C@@H](CCCNC(=N)N)C(=O)N[C@@H](Cc1c[nH]c2ccccc12)C(=O)N[C@@H](CCCNC(=N)N)C(=O)N[C@@H](Cc1c[nH]c2ccccc12)C(=O)N[C@@H](CCCNC(=N)N)C(=O)N[C@@H](Cc1c[nH]c2ccccc12)C(N)=O (H-K(Decanoyl)RWRWRW-NH2) | > 50% |
| N=C(N)NCCC[C@H](NC(=O)[C@H](Cc1c[nH]c2ccccc12)NC(=O)[C@H](CCCNC(=N)N)NC(=O)[C@H](Cc1c[nH]c2ccccc12)NC(=O)[C@H](CCCNC(=N)N)NC(=O)[C@@H](N)CCCCN)C(=O)N[C@@H](Cc1c[nH]c2ccccc12)C(N)=O (H-KRWRWRW-NH2) | < 10% |
| N=C(N)NCCC[C@H](NC(=O)[C@H](Cc1c[nH]c2ccccc12)NC(=O)[C@H](CCCNC(=N)N)NC(=O)[C@H](Cc1c[nH]c2ccccc12)NC(=O)[C@@H](N)CCCNC(=N)N)C(=O)N[C@@H](Cc1c[nH]c2ccccc12)C(=O)N[C@@H](CCCCN)C(N)=O (H-RWRWRWK-NH2) | < 10% |

Now turn to the next compound.
Returns the measured hemolysis at 250 ug/ml for the input compound. Input: CCCCCCCCCCCC(=O)NCCCC[C@H](N)C(=O)N[C@@H](CCCNC(=N)N)C(=O)N[C@@H](Cc1c[nH]c2ccccc12)C(=O)N[C@@H](CCCNC(=N)N)C(=O)N[C@@H](Cc1c[nH]c2ccccc12)C(=O)N[C@@H](CCCNC(=N)N)C(=O)N[C@@H](Cc1c[nH]c2ccccc12)C(N)=O (H-K(Lauroyl)RWRWRW-NH2) > 50%
